// data source = patent US20250019437A1

# Binding Signal (fold over 6E7 parental antibody) listing for each entry below
# tested.system: T1, human TREM2 (triggering receptor expressed on myeloid cells 2) (human) (UniProt Q9NZC2)
# T1 sequence (looked up): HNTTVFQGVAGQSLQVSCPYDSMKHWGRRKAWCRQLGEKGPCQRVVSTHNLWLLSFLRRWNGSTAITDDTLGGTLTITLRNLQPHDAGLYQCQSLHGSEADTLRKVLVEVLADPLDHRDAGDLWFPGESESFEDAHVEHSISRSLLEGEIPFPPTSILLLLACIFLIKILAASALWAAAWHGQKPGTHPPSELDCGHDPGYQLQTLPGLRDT
# assay.text: 2nd screen, 2 nM Ab
All answers are understood in fold, so give the number only.

Below are worked cases with known answers.
binder="6E7 antibody affinity modulation variant V65 (antibody, V domains shown) VH: EVQLVQSGAEVKKPGESLKISCKGSGYSFTSYWIAWVRQMPGKGLEWMGIIYPGDSDTRYSPSFQGQVTISADKSISTAYLQWSSLKASDTAMYFCARSRTFYYDSSDYFDYWGQGTLVTVSS VL: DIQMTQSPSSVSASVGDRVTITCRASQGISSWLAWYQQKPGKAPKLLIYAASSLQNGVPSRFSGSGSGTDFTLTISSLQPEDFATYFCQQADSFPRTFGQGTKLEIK" unit_abbrev=fold readout_value=1.29
binder="6E7 antibody affinity modulation variant V49 (antibody, V domains shown) VH: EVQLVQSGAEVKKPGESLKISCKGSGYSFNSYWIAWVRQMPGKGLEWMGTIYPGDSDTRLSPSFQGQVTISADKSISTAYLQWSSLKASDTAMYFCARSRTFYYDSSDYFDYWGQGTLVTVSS VL: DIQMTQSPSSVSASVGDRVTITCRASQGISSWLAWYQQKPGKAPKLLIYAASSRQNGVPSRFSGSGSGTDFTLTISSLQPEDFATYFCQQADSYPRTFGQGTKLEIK" unit_abbrev=fold readout_value=5.02
binder="6E7 antibody affinity modulation variant V28 (antibody, V domains shown) VH: EVQLVQSGAEVKKPGESLKISCKGSGYSFQSYWIAWVRQMPGKGLEWMGTIYPGDSDTRYSPSFQGQVTISADKSISTAYLQWSSLKASDTAMYFCARQRTFFYDSSDYFDYWGQGTLVTVSS VL: DIQMTQSPSSVSASVGDRVTITCRASQGISSWLAWYQQKPGKAPKLLIYAASSLQSGVPSRFSGSGSGTDFTLTISSLQPEDFATYFCQQADSLPRTFGQGTKLEIK" unit_abbrev=fold readout_value=2.63
binder="6E7 antibody affinity modulation variant V60 (antibody, V domains shown) VH: EVQLVQSGAEVKKPGESLKISCKGSGYHFTSYWIAWVRQMPGKGLEWMGIIYPGDSDVRYSPSFQGQVTISADKSISTAYLQWSSLKASDTAMYFCARQRTFYYDSSDYSDYWGQGTLVTVSS VL: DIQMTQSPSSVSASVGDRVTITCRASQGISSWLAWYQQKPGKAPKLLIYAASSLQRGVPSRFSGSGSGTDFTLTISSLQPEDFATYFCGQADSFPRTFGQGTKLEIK" unit_abbrev=fold readout_value=3.35
binder="6E7 antibody affinity modulation variant V76 (antibody, V domains shown) VH: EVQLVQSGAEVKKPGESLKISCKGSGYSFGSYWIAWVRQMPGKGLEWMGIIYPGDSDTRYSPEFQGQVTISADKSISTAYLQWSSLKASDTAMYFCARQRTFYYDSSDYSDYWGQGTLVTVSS VL: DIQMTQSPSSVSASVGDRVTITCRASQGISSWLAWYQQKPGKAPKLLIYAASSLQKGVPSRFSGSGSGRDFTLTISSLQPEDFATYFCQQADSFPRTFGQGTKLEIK" unit_abbrev=fold readout_value=4.34

Output Binding Signal (fold over 6E7 parental antibody) of 6E7 antibody affinity modulation variant V3 (antibody, V domains shown) VH: EVQLVQSGAEVKKPGESLKISCKGSGYSFASYWIAWVRQMPGKGLEWMGIIYPGDSDTRYSPSFQDQVTISADKSISTAYLQWSSLKASDTAMYFCARGRTFYYDSSDYFDYWGQGTLVTVSS VL: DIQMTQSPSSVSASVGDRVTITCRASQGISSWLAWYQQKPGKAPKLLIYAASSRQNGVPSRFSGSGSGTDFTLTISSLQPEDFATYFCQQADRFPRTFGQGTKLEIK
1.95

Output Binding Signal (fold over 6E7 parental antibody) of 6E7 antibody affinity modulation variant V61 (antibody, V domains shown) VH: EVQLVQSGAEVKKPGESLKISCKGSGYSFSSYWIAWVRQMPGKGLEWMGIIYPGDSDTRYNPSFQGQVTISADKSISTAYLQWSSLKASDTAMYFCARGRTFYYDSSDYFDYWGQGTLVTVSS VL: DIQMTQSPSSVSASVGDRVTITCRASQGISSWLAWYQQKPGKAPKLLIYAASSLVNGVPSRFSGSGSGTDFTLTISSLQPEDFATYFCQQADSLPRTFGQGTKLEIK
3.63

Output Binding Signal (fold over 6E7 parental antibody) of 6E7 antibody affinity modulation variant V73 (antibody, V domains shown) VH: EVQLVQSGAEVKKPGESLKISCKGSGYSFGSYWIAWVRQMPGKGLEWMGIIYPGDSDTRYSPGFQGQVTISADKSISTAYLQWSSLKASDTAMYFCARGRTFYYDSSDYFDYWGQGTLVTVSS VL: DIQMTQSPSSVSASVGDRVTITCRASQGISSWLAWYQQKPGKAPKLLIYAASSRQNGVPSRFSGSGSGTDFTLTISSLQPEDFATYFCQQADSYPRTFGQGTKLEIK
4.17

Output Binding Signal (fold over 6E7 parental antibody) of 6E7 antibody affinity modulation variant V85 (antibody, V domains shown) VH: EVQLVQSGAEVKKPGESLKISCKGSGYSFRSYWIAWVRQMPGKGLEWMGTIYPGDSDTRYSPSFQGQVTISADKSISTAYLQWSSLKASDTAMYFCARSRTFYYDSSDYFDYWGQGTLVTVSS VL: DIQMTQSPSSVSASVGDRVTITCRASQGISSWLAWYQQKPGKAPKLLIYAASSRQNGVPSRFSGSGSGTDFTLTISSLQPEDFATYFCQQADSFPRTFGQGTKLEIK
5.41

Output Binding Signal (fold over 6E7 parental antibody) of 6E7 antibody affinity modulation variant V13 (antibody, V domains shown) VH: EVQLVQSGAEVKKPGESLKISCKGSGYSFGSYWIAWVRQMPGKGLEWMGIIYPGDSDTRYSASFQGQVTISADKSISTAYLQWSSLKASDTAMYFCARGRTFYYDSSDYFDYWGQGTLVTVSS VL: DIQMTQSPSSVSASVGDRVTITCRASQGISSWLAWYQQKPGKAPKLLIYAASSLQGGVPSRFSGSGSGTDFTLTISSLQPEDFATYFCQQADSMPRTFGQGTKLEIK
1.15
